In this section, each of the compounds is paired with its reported IC50.
Protein target, amino acids: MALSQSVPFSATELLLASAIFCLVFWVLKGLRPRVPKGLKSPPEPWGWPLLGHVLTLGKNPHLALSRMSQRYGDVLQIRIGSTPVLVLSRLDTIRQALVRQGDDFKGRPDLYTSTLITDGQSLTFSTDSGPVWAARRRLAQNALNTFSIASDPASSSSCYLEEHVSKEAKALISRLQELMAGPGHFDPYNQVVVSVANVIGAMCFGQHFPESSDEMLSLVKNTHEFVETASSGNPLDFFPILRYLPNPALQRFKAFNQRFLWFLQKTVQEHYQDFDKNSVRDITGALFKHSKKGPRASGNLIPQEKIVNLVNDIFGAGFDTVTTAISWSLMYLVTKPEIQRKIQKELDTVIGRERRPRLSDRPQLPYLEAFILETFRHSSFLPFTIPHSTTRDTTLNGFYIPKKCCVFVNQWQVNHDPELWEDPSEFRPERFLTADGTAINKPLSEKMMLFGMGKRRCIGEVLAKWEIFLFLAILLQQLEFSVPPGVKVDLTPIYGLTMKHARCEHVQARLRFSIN

# example entries with known answers
C[C@@H]1CCCN1CCCOc1ccc(-c2nn(C)c(=O)c3c2CCCC3)cc1 :: > 30 µM
CC(C)n1nc(-c2ccc(OCCCN3CCC[C@H]3C)cc2)c2sccc2c1=O :: > 30 µM

Asked: Complete the entry with IC50 for Cn1nc(-c2ccc(OCCCN3CCCCC3)cc2)c2c(c1=O)CCCC2
Given back: > 30 µM

Asked: Complete the entry with IC50 for Cn1nc(-c2ccc(OCCCN3CCCCC3)cc2)c2ccccc2c1=O
Given back: > 30 µM

Asked: Complete the entry with IC50 for CN1N=C(c2ccc(OCCCN3CCCCC3)cc2)C2CCCC2C1=O (stereo not given)
Given back: > 30 µM
